Just for reference, patent US12071414B2 is where these values come from.

pEC50 listing for selected compounds.
system: human apelin receptor (APJ, AGTRL-one, APLNR) (Homo sapiens, UniProt P35414)
Sequence (P35414 whole entry): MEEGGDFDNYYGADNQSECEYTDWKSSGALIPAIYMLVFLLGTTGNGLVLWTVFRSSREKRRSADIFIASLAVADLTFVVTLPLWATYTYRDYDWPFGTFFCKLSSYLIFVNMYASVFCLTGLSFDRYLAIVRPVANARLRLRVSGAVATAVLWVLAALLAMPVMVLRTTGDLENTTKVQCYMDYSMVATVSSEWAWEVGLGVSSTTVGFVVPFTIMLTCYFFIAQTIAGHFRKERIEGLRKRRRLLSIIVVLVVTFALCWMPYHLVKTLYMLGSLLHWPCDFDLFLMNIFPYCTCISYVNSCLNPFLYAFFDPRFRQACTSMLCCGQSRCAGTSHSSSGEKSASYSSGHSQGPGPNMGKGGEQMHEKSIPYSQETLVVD
assay-notes: cell-based cAMP TR-FRET assay of apelin receptor activation
condition-label: CHO cells expressing human APJ, forskolin-stimulated cAMP, 0.5 h incubation, 50% of control (apelin-13, 1 nM) response; read-out: Potency Category (EC50)
pEC50: −log10 of the molar value.

> print(dat)
                                   compound  result
1  CCS(=O)(=O)c1ccc(CC(=O)Nc2nc3cc(OC)c(OC)cc3o2)cc1  < 6.30
2  CCS(=O)(=O)c1ccc(C(Oc2ccc(C#N)cc2)C(=O)Nc2nc3ccc(OCCN4CCN(C)CC4)cc3s2)cc1 (stereo not drawn)  < 6.30

Then this compound:
### Prompt Sample CCS(=O)(=O)c1ccc(C(Oc2ccc(OC)cc2)C(=O)Nc2nc3ccc4c(c3s2)OCO4)cc1 (stereo not drawn) — what was its pEC50?
### Response < 6.30

###

system: human apelin receptor (APJ, AGTRL-one, APLNR) (Homo sapiens)
assay-notes: cell-based cAMP TR-FRET assay of apelin receptor activation
condition-label: CHO cells expressing human APJ, forskolin-stimulated cAMP, 0.5 h incubation, 50% of control (apelin-13, 1 nM) response; read-out: Potency Category (EC50)
Description: The assays disclosed herein were performed using cell lines from DiscoveX, Inc. Biological activity was determined to the cell—based assay. This assay detects activation of the receptor by reporting on intracellular cyclic adenosine monophosphate (cAMP) level. […] At the end of the incubation, cells were lysed to stop APJ signaling and cAMP was quantified using a commercially available competitive immunoassay kit that applies homogenous time—resolved florescence energy transfer (TR—FRET). […]
property-name: EC50

### Prompt Sample `CCS(=O)(=O)c1cccc(CC(=O)Nc2nc3cc(OC)c(OC)cc3s2)c1` — what was its EC50?
### Response > 500 nM

### Prompt Sample COc1cc2nc(NC(=O)C(Oc3ccc(C#N)cc3)c3ccc(C(=O)N4CCN(C)CC4)cc3)sc2cc1OC (stereo not drawn) — what was its EC50?
### Response 200 to 500 nM

### Prompt Sample CCS(=O)(=O)c1ccc(C(NC2CCCC2)C(=O)Nc2nc3cc(OC)c(OC)cc3s2)cc1 (stereo not drawn) — what was its EC50?
### Response > 500 nM

### Prompt Sample `COC(=O)c1ccc(CC(=O)Nc2nc3cc(OC)c(OC)cc3s2)cc1` — what was its EC50?
### Response > 500 nM

###

system: human apelin receptor (APJ, AGTRL-one, APLNR) (Homo sapiens)
assay-notes: cell-based cAMP TR-FRET assay of apelin receptor activation
condition-label: CHO cells expressing human APJ, forskolin-stimulated cAMP, 0.5 h incubation, 50% of control (apelin-13, 1 nM) response; read-out: Potency Category (EC50)
EC50 listing for selected compounds.

Take a look at these entries with their results.
> print(dat)
                                   compound  property.name         result
1  COc1cc2nc(NC(=O)Cc3ccc(C(=O)N(C)C)cc3)sc2cc1OC           EC50       > 500 nM
2  COCCNC(=O)c1ccc(OC(C(=O)Nc2nc3cc(OC)c(OC)cc3s2)c2ccc(C#N)cc2)cc1 (centres unmarked)           EC50       > 500 nM
3  COc1cc2nc(NC(=O)Cc3cccc(S(=O)(=O)c4ccc(F)cc4)c3)sc2cc1OC           EC50       > 500 nM
4  CCS(=O)(=O)c1cccc(C(Oc2ccc(OC)cc2)C(=O)Nc2nc3cc(OC)c(OC)cc3s2)c1 (centres unmarked)           EC50       > 500 nM
5  CCS(=O)(=O)c1ccc(C(Oc2ccc(C(C)C)cc2)C(=O)Nc2nc3cc(OC)c(OC)cc3s2)cc1 (centres unmarked)           EC50  200 to 500 nM

### Prompt Sample COc1cc2nc(NC(=O)C(Oc3ccc(C#N)cc3)c3cccc(S(=O)(=O)C(C)C)c3)sc2cc1OC (centres unmarked) — what was its EC50?
### Response 200 to 500 nM

### Prompt Sample `COc1cc2nc(NC(=O)Cc3ccccc3C(=O)O)sc2cc1OC` — what was its EC50?
### Response > 500 nM

### Prompt Sample CCS(=O)(=O)c1ccc(C(Oc2ccc(C#N)cc2)C(=O)Nc2nc3cc(OC)ccc3s2)cc1 (centres unmarked) — what was its EC50?
### Response > 500 nM
